- assay.summary: Mouse brain penetration study
- Assay type: in vivo, female C57BL6 mice
- experimental.setup: C57BL6, mouse, whole blood, iv; female C57BL/6 mice, 1 mg/kg i.v. bolus, 5 min; read-out: Level in the blood (mean)
test.readout: concentration at 5 min (ng/mL)
Field: numeric (ng/mL). Do not append units.

Sample Cc1cc2c(c(C)c1Cl)N(CC(=O)O)C(=O)CO2 — what was its concentration at 5 min?
3780

###

Property: Papp A→B at 1 h, 10 µM; scope: individual compounds
- assay.summary: in vitro
- Type: in vitro ADME, canine
- experimental.setup: dog, MDCK, pH 7.4, wild type MDCK; read-out: Papp A>B Mean
Field: numeric (×10⁻⁶ cm/s). Do not append units.

Below: 2 compounds and their reported Papp A→B at 1 h, 10 µM.
Cn1c(C(=O)N[C@@H](C(=O)O)c2ccccc2)cc2cc(F)ccc21 [compound 5] : 2.35
Cc1cc2c(c(C)c1Cl)N(CC(=O)O)C(=O)CO2 [compound 1] : 13.5

Next compound, Papp A→B at 1 h, 10 µM to be filled in.
Sample Oc1ccc(-c2csc3nc(-c4ccccc4)nn23)c(O)c1 [compound 3] — what was its Papp A→B at 1 h, 10 µM?
3.3

###

Property: Mean FL2-A, compound only; scope: individual molecules
- System: K562 cells
- assay.summary: Competition assay for uptake of riboflavin
- Type: cell-based, Human
- Parameters: key: relative fluorescence units
- experimental.setup: compound 100 µM, time 1
- From the text: Riboflavin transporters are equilibrative rather than concentrative, and the uptake of the inhibitors would be hard to measure directly. To assess whether the KMO inhibitors were substrates for riboflavin transporters, we assessed their ability to compete with riboflavin for uptake into cells. Riboflavin is intensely fluorescent, and is taken up in human cells by three main transporters SLC52A1, SLC52A2 and SLC52A3[28]. […] There was a background fluorescence of some 100 relative fluorescence units. […]

COC(=O)CN1C(=O)COc2cc(C)c(Cl)c(C)c21 : 62.8068
CCOC(=O)CN1C(=O)COc2cc(C)c(Cl)c(C)c21 : 59.4089
Cc1cc2c(c(C)c1Cl)N(CC(=O)O)C(=O)CO2 : 58.5977

Next molecule, Mean FL2-A, compound only to be filled in.
Sample Cc1cc2c(c(C)c1Cl)N(CC(=O)OC(C)C)C(=O)CO2 — what was its Mean FL2-A, compound only?
60.7763

###

- Tested on: MDR1 (P-glycoprotein)
- assay.summary: in vitro
- Assay type: in vitro ADME, canine
- experimental.setup: dog, MDCK-MDR1, pH 7.4, Papp A>B n=2, MDR1 MDCK
Entries whose Papp A→B at 1 h, 10 µM is below 4 ×10⁻⁶ cm/s take Y; entries at or above 4 ×10⁻⁶ cm/s take N.

Below, 5 compounds whose answers are already recorded.
Oc1ccc(-c2csc3nc(-c4ccccc4)nn23)c(O)c1 [compound 3] : Y
Cc1cc2c(c(C)c1Cl)N(CC(=O)O)C(=O)CO2 [compound 1] : N
Cn1c(C(=O)N[C@@H](C(=O)O)c2ccccc2)cc2cc(F)ccc21 [compound 5] : Y
CC(C)NCC(O)COc1cccc2ccccc12 (stereo not drawn) [Propranolol, reference compound] : N
CC[C@]1(O)C[C@@H]2CN(CCc3c([nH]c4ccccc34)[C@@](C(=O)OC)(c3cc4c(cc3OC)N(C)[C@H]3[C@@](O)(C(=O)OC)[C@H](OC(C)=O)[C@]5(CC)C=CCN6CC[C@]43[C@@H]65)C2)C1 [Vinblastine, reference compound] : Y

Next:
Quick check: does CC(CSc1ccc(Cl)cc1)C(=O)O (stereo not drawn) [compound 6] have Papp A→B at 1 h, 10 µM under 4 ×10⁻⁶ cm/s?
N
